Biological target: Nuclear receptor subfamily 4 group A member 2 (Mus musculus, UniProt Q06219)
Sequence (Q06219 whole entry, the tested form may be a part): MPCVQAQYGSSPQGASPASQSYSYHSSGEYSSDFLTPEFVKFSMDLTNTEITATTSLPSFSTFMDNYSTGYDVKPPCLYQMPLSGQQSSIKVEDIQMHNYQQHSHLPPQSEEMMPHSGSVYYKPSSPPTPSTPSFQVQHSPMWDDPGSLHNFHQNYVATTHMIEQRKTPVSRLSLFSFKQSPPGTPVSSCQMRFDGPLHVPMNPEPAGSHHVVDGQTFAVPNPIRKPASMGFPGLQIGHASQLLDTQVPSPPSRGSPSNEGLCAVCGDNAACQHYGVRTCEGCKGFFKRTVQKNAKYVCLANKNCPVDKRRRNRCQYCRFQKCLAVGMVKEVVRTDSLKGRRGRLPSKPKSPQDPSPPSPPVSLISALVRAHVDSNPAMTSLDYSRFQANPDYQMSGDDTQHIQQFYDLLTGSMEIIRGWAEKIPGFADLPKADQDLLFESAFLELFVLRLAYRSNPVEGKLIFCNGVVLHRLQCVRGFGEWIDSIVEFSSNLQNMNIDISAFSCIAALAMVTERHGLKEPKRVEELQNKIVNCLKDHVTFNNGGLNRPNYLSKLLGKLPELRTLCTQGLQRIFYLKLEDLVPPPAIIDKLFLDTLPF
Assay: Agonist activity at Nurr1 in mouse MN9D cells measured by Gal4-based luciferase reporter gene assay
Assay type: cell-based
Hi there, I'd appreciate the recorded pEC50 for every entry that follows.
The quantity pEC50 is defined as the negative base-10 logarithm of the molar concentration.

The compound listed as CCCCC[C@H](O)/C=C/[C@H]1C=CC(=O)[C@@H]1CCCCCCC(=O)O [PROSTAGLANDIN A1] shows pEC50 equal to 5.30

The compound listed as CCCCC[C@H](O)/C=C/[C@H]1[C@H](O)CC(=O)[C@@H]1CCCCCCC(=O)O [ALPROSTADIL] shows pEC50 equal to 5.52
